Settings: in 2-propoxyethanol, 298.15 K

# compound.structure, solubility (mole fraction)
data = [
    ("C=C(C)[C@@H]1CC[C@]2(C(=O)O)CC[C@]3(C)[C@H](CC[C@@H]4[C@@]5(C)CCC(=O)C(C)(C)[C@@H]5CC[C@]43C)[C@@H]12", 0.0274),
]

* * *

Details: in isopropanol, 288.15 K
property.name: solubility (mole fraction)

# compound.structure, recorded.result
measured = [
    ("C=C(C)[C@@H]1CC[C@]2(C(=O)O)CC[C@]3(C)[C@H](CC[C@@H]4[C@@]5(C)CCC(=O)C(C)(C)[C@@H]5CC[C@]43C)[C@@H]12", 0.00651),
]

* * *

Details: in 2-methoxyethanol, 283.15 K
property.name: solubility (mole fraction)

# compound.structure, recorded.result
rows = [
    ("C=C(C)[C@@H]1CC[C@]2(C(=O)O)CC[C@]3(C)[C@H](CC[C@@H]4[C@@]5(C)CCC(=O)C(C)(C)[C@@H]5CC[C@]43C)[C@@H]12", 0.00923),
]

* * *

Settings: in 2-methoxyethanol, 313.15 K
property.name: solubility (mole fraction)

# compound.structure, recorded.result
data = [
    ("C=C(C)[C@@H]1CC[C@]2(C(=O)O)CC[C@]3(C)[C@H](CC[C@@H]4[C@@]5(C)CCC(=O)C(C)(C)[C@@H]5CC[C@]43C)[C@@H]12", 0.0137),
]

* * *

Settings: in n-propanol, 303.15 K
property.name: solubility (mole fraction)

# compound.structure, property.name, recorded.result
data = [
    ("C=C(C)[C@@H]1CC[C@]2(C(=O)O)CC[C@]3(C)[C@H](CC[C@@H]4[C@@]5(C)CCC(=O)C(C)(C)[C@@H]5CC[C@]43C)[C@@H]12", "solubility (mole fraction)", 0.0116),
]

* * *

Conditions: in n-propanol, 308.15 K

# compound.structure, solubility (mole fraction)
data = [
    ("C=C(C)[C@@H]1CC[C@]2(C(=O)O)CC[C@]3(C)[C@H](CC[C@@H]4[C@@]5(C)CCC(=O)C(C)(C)[C@@H]5CC[C@]43C)[C@@H]12", 0.0131),
]

* * *

Details: in 2-methoxyethanol, 278.15 K

# compound.structure, solubility (mole fraction)
data = [
    ("C=C(C)[C@@H]1CC[C@]2(C(=O)O)CC[C@]3(C)[C@H](CC[C@@H]4[C@@]5(C)CCC(=O)C(C)(C)[C@@H]5CC[C@]43C)[C@@H]12", 0.00863),
]

* * *

Conditions: in ethanol, 293.15 K

# compound.structure, solubility (mole fraction)
rows = [
    ("C=C(C)[C@@H]1CC[C@]2(C(=O)O)CC[C@]3(C)[C@H](CC[C@@H]4[C@@]5(C)CCC(=O)C(C)(C)[C@@H]5CC[C@]43C)[C@@H]12", 0.00503),
]

* * *

Conditions: in 2-propoxyethanol, 313.15 K
property.name: solubility (mole fraction)

# compound.structure, recorded.result
records = [
    ("C=C(C)[C@@H]1CC[C@]2(C(=O)O)CC[C@]3(C)[C@H](CC[C@@H]4[C@@]5(C)CCC(=O)C(C)(C)[C@@H]5CC[C@]43C)[C@@H]12", 0.0314),
]

* * *

Details: in 2-propoxyethanol, 318.15 K
property.name: solubility (mole fraction)

# compound.structure, recorded.result
measured = [
    ("C=C(C)[C@@H]1CC[C@]2(C(=O)O)CC[C@]3(C)[C@H](CC[C@@H]4[C@@]5(C)CCC(=O)C(C)(C)[C@@H]5CC[C@]43C)[C@@H]12", 0.0331),
]
